# System: NCI-H23 lung
# assay notes: NCI tumour cell line growth inhibition, 384-well format; in the data active means GI50 below about 0.43 µM; inactive means the rest
Thanks in advance; please answer with one of these: T (active), F (inactive)

CC[C@H](C)n1cc(C)c2c(C(=O)NCc3c(C)cc(C)[nH]c3=O)cc(-c3ccc(N4CCNCC4)nc3)cc21	F

Q: Call for entry O=C1c2ccccc2C(=O)C(Cl)C1Cl (centres undefined) :
A: F

Q: Call for entry C=CCN(/C=C1\C(=O)O[C@H](COC)[C@@]2(C)C1=C(O)C(=O)C1=C2[C@H](OC(C)=O)C[C@]2(C)C(=O)CC[C@@H]12)CC=C :
A: F

Q: Call for entry CNC(C)C(=O)N[C@H](C(=O)N1CCC[C@@H]1CN(CCc1ccccc1)C(=O)C(F)(F)F)[C@H](C)OCC#CC#CCO[C@H](C)[C@H](NC(=O)[C@H](C)NC)C(=O)N1CCC[C@H]1CN(CCc1ccccc1)C(=O)C(F)(F)F (some centres undefined) :
A: T
